# System: CAL-120
# Experiment Notes: normalised response (% of control), CellTox Green; higher = less cell death (100 = DMSO, 0 = benzethonium chloride kill control)
# Condition Info: incubation time: 72 h
Outcome label depends on normalised response relative to 90%: at/above gives true, below gives false.

| Molecule | Cat |
| --- | --- |
| CC(O)(CS(=O)(=O)c1ccc(F)cc1)C(=O)Nc1ccc(C#N)c(C(F)(F)F)c1 (stereo not drawn) [Bicalutamide] (10000 nM) | true |
| Cn1cc(C2=C(c3cn(C4CCN(Cc5ccccn5)CC4)c4ccccc34)C(=O)NC2=O)c2ccccc21 [Enzastaurin] (10000 nM) | false |
| O=C(O)CNC(=O)c1c(O)c2ccccc2n(Cc2ccccc2)c1=O [IOX-2] (50000 nM) | true |
| COc1cc(Nc2c(C#N)cnc3cc(OCCCN4CCN(C)CC4)c(OC)cc23)c(Cl)cc1Cl [Bosutinib] (10000 nM) | false |
| CC1(C)CCC(c2ccc(Cl)cc2)=C(CN2CCN(c3ccc(C(=O)NS(=O)(=O)c4ccc(N[C@H](CCN5CCOCC5)CSc5ccccc5)c(S(=O)(=O)C(F)(F)F)c4)cc3)CC2)C1 [Navitoclax] (1000 nM) | false |
| CNC(=O)c1ccccc1Sc1ccc2c(/C=C/c3ccccn3)n[nH]c2c1 [Axitinib] (1000 nM) | true |
| CN[C@@H](C)C(=O)N[C@H]1CN(C(=O)CC(C)C)CC[C@H]2CC[C@@H](C(=O)NC(c3ccccc3)c3ccccc3)N2C1=O [AT-406] (100 nM) | false |
| CO[C@@H]1[C@H](N(C)C(=O)c2ccccc2)C[C@H]2O[C@]1(C)n1c3ccccc3c3c4c(c5c6ccccc6n2c5c31)C(=O)NC4 [Midostaurin] (100 nM) | false |
| CN(C)C(=N)NC(=N)N [Metformin] (1000 nM) | true |
| C/C(=C\c1csc(C)n1)[C@@H]1C[C@@H]2O[C@]2(C)CCC[C@H](C)[C@H](O)[C@@H](C)C(=O)C(C)(C)[C@@H](O)CC(=O)N1 [Ixabepilone] (100 nM) | true |

---

# System: Hs578T
# Experiment Notes: normalised response (% of control), CellTiter-Glo; higher = more viable cells (100 = DMSO, 0 = benzethonium chloride kill control)
# Condition Info: incubation time: 72 h
In this section, each of the compounds is paired with its reported normalised response.

| Compound | System Name | Unit Text | normalised response |
| --- | --- | --- | --- |
| Cn1cc(C2=C(c3cn(C4CCN(Cc5ccccn5)CC4)c4ccccc34)C(=O)NC2=O)c2ccccc21 [Enzastaurin] (10000 nM) | Hs578T | % | 91 |
| CN(Cc1cnc2nc(N)nc(N)c2n1)c1ccc(C(=O)N[C@@H](CCC(=O)O)C(=O)O)cc1 [Methotrexate] (50000 nM) | Hs578T | % | 19.5 |
| CC[C@H](CO)Nc1nc(NCc2ccccc2)c2ncn(C(C)C)c2n1 [Seliciclib] (10000 nM) | Hs578T | % | 96.4 |
| C/C(=C\c1csc(C)n1)[C@@H]1C[C@@H]2O[C@]2(C)CCC[C@H](C)[C@H](O)[C@@H](C)C(=O)C(C)(C)[C@@H](O)CC(=O)N1 [Ixabepilone] (1000 nM) | Hs578T | % | 99 |
| COc1cc(Nc2c(C#N)cnc3cc(OCCCN4CCN(C)CC4)c(OC)cc23)c(Cl)cc1Cl [Bosutinib] (10000 nM) | Hs578T | % | 48.5 |
| Cc1nc(C(=O)NCC(=O)O)c(O)c2ccc(Oc3ccccc3)cc12 [FG-4592] (10000 nM) | Hs578T | % | 109 |
| CC(C)(C)NC(=O)[C@H]1CC[C@H]2[C@@H]3CC[C@H]4NC(=O)C=C[C@]4(C)[C@H]3CC[C@]12C [Finasteride] (10000 nM) | Hs578T | % | 99.9 |

---

# System: MDA-MB-436
# Experiment Notes: normalised viability (% of control), CellTiter-Blue; higher = more viable cells (about 100 = DMSO control)
# Condition Info: 1000 nM; incubation time: 72 h
Each entry below carries its recorded normalised viability.
Reported Endpoint: normalised viability (%)

| Molecule | Reported Endpoint | Unit Text | Obs Value |
| --- | --- | --- | --- |
| CC1(C)CCC(c2ccc(Cl)cc2)=C(CN2CCN(c3ccc(C(=O)NS(=O)(=O)c4ccc(N[C@H](CCN5CCOCC5)CSc5ccccc5)c(S(=O)(=O)C(F)(F)F)c4)cc3)CC2)C1 | normalised viability | % | 98.7 |
| Cc1cc(Nc2nc(N[C@@H](C)c3ncc(F)cn3)ncc2Cl)[nH]n1 | normalised viability | % | 125 |
| COc1c2occc2cc2ccc(=O)oc12 | normalised viability | % | 87.1 |
| COc1ccc(S(=O)(=O)Nc2cccnc2Nc2ccc(O)cc2)cc1 | normalised viability | % | 48.3 |
| CC(C)(C)NC(=O)[C@H]1CC[C@H]2[C@@H]3CC[C@H]4NC(=O)C=C[C@]4(C)[C@H]3CC[C@]12C [Finasteride] | normalised viability | % | 97.8 |
| CC[C@H](CO)Nc1nc(NCc2ccccc2)c2ncn(C(C)C)c2n1 | normalised viability | % | 92.7 |

---

Quick list: drug sensitivity score per entry.
# System: MDA-MB-468
# Experiment Notes: drug sensitivity score (DSS), CellTox Green (DSS (AUC-based score)); higher = stronger drug effect (viability inhibition or cytotoxicity); extreme values may be limits of the assay
# Condition Info: incubation time: 72 h
Reported Endpoint: drug sensitivity score

| Compound | Reported Endpoint | Obs Value |
| --- | --- | --- |
| C/C(=C\c1csc(C)n1)[C@@H]1C[C@@H]2O[C@]2(C)CCC[C@H](C)[C@H](O)[C@@H](C)C(=O)C(C)(C)[C@@H](O)CC(=O)N1 [Ixabepilone] | drug sensitivity score | 1.3 |
| COc1cc(Nc2c(C#N)cnc3cc(OCCCN4CCN(C)CC4)c(OC)cc23)c(Cl)cc1Cl | drug sensitivity score | 5.02 |
| CC(C)C[C@H](NC(=O)[C@@H](COC(C)(C)C)NC(=O)[C@H](Cc1ccc(O)cc1)NC(=O)[C@H](CO)NC(=O)[C@H](Cc1c[nH]c2ccccc12)NC(=O)[C@H](Cc1cnc[nH]1)NC(=O)[C@@H]1CCC(=O)N1)C(=O)N[C@@H](CCCNC(=N)N)C(=O)N1CCC[C@H]1C(=O)NNC(N)=O | drug sensitivity score | 0 |
| Cn1cc(C2=C(c3cn(C4CCN(Cc5ccccn5)CC4)c4ccccc34)C(=O)NC2=O)c2ccccc21 | drug sensitivity score | 0 |
| CC1(C)CCC(c2ccc(Cl)cc2)=C(CN2CCN(c3ccc(C(=O)NS(=O)(=O)c4ccc(N[C@H](CCN5CCOCC5)CSc5ccccc5)c(S(=O)(=O)C(F)(F)F)c4)cc3)CC2)C1 | drug sensitivity score | 6.68 |
| CCNC(=O)c1noc(-c2cc(C(C)C)c(O)cc2O)c1-c1ccc(CN2CCOCC2)cc1 | drug sensitivity score | 0 |
| CN[C@@H](C)C(=O)N[C@H]1CN(C(=O)CC(C)C)CC[C@H]2CC[C@@H](C(=O)NC(c3ccccc3)c3ccccc3)N2C1=O | drug sensitivity score | 0 |
| O=[N+]([O-])c1ccc2c(c1)S(=O)(=O)C=C2 | drug sensitivity score | 19.8 |

---

The following molecules are shown together with reported normalised response values.
# Tested on: DU-4475
# Experiment Notes: normalised response (% of control), CellTiter-Glo; higher = more viable cells (100 = DMSO, 0 = benzethonium chloride kill control)
# Condition Info: incubation time: 72 h
Reported Endpoint: normalised response (%)

| Molecule | Reported Endpoint | Unit Text | Obs Value |
| --- | --- | --- | --- |
| Cn1cc(C2=C(c3cn(C4CCN(Cc5ccccn5)CC4)c4ccccc34)C(=O)NC2=O)c2ccccc21 [Enzastaurin] (100 nM) | normalised response | % | 99.4 |
| CC(C)C[C@H](NC(=O)[C@@H](COC(C)(C)C)NC(=O)[C@H](Cc1ccc(O)cc1)NC(=O)[C@H](CO)NC(=O)[C@H](Cc1c[nH]c2ccccc12)NC(=O)[C@H](Cc1cnc[nH]1)NC(=O)[C@@H]1CCC(=O)N1)C(=O)N[C@@H](CCCNC(=N)N)C(=O)N1CCC[C@H]1C(=O)NNC(N)=O [Goserelin] (100 nM) | normalised response | % | 97.4 |
| O=C(O)CNC(=O)c1c(O)c2ccccc2n(Cc2ccccc2)c1=O [IOX-2] (500 nM) | normalised response | % | 101 |
| CC1(C)CCC(c2ccc(Cl)cc2)=C(CN2CCN(c3ccc(C(=O)NS(=O)(=O)c4ccc(N[C@H](CCN5CCOCC5)CSc5ccccc5)c(S(=O)(=O)C(F)(F)F)c4)cc3)CC2)C1 [Navitoclax] (100 nM) | normalised response | % | 92.9 |
